src = the supplement of paper PMC13380429

Please provide measured cell viability for the entries that follow.
Tested on: Calu-3
Experiment: cell viability relative to DMSO; higher = less toxic
Conditions: 72 h; 10000 nM
Answers are plain numbers, in %.

Take a look at these entries with their results.
- molecule: "CCN(CC)C(=O)N1CCN(C)CC1 [diethylcarbamazine]"
  measurement.target: "Calu-3"
  unit.text: "%"
  result.value: 102
- molecule: "C[C@]12CC[C@H](O)C[C@H]1CC[C@@H]1[C@@H]2C[C@@H](O)[C@]2(C)[C@@H](C3=CC(=O)OC3)CC[C@]12O [digoxigenin]"
  measurement.target: "Calu-3"
  unit.text: "%"
  result.value: 29
- molecule: "CC[C@]1(O)C[C@H]2CN(CCc3c([nH]c4ccccc34)[C@@](C(=O)OC)(c3cc4c(cc3OC)N(C=O)[C@H]3[C@@](O)(C(=O)OC)[C@H](OC(C)=O)[C@]5(CC)C=CCN6CC[C@]43[C@@H]65)C2)C1 [Vincristine (sulfate)]"
  measurement.target: "Calu-3"
  unit.text: "%"
  result.value: 34.6
- molecule: "Oc1ccc(-c2c(-c3ccccc3)nn3c(C(F)(F)F)cc(C(F)(F)F)nc23)cc1 [PHTPP]"
  measurement.target: "Calu-3"
  unit.text: "%"
  result.value: 113
- molecule: "CCOc1ccccc1N/N=C1/C(=O)N(c2nc(-c3ccccc3)cs2)N=C1C [BAM7]"
  measurement.target: "Calu-3"
  unit.text: "%"
  result.value: 99.6
- molecule: "CC(C)CC(NC(=O)OCC1c2ccccc2-c2ccccc21)C(=O)O (stereo in doubt)"
  measurement.target: "Calu-3"
  unit.text: "%"
  result.value: 92.8
- molecule: "COc1ccc([C@@H]2CC(=O)c3c(O)cc(O[C@@H]4O[C@H](CO[C@@H]5O[C@@H](C)[C@H](O)[C@@H](O)[C@H]5O)[C@@H](O)[C@H](O)[C@H]4O)cc3O2)cc1O [hesperidin]"
  measurement.target: "Calu-3"
  unit.text: "%"
  result.value: 101
- molecule: "CCCCCCCCCCC(CO)CCCCCCCC (stereo not given) [2-octyldodecan-1-ol]"
  measurement.target: "Calu-3"
  unit.text: "%"
  result.value: 102

Could I get cell viability for every one of these entries?
1. CNC[C@@H]1CC[C@@H](N)[C@@H](O[C@H]2[C@H](O)[C@@H](O[C@H]3OC[C@](C)(O)[C@H](NC)[C@H]3O)[C@H](N)C[C@@H]2N)O1 [micronomicin]
2. C=CC(=O)Nc1cccc(Oc2nc(Nc3ccc(N4CCN(C)CC4)cc3)ncc2Cl)c1 [WZ-3146]
3. C=C(c1ccccc1OCc1cccc(Cl)c1)n1ccnc1 [croconazole]
4. C=CC(=O)Nc1cc2c(Nc3ccc(F)c(Cl)c3)ncnc2cc1OCCCN1CCOCC1 [canertinib]
5. CC(C)C[C@@H](C(=O)N[C@H](C(=O)OC1CCCC1)c1ccccc1)[C@H](O)C(=O)NO [tosedostat]

RESULT:
95.5
2.3
92.1
30.1
59.8

Could I get cell viability for every one of these entries?
1. COc1cc(C=O)c([N+](=O)[O-])cc1OC [DMNB]
2. Cc1ccc2c(c1)C1(CCN(CCc3nc(-c4ccccc4)oc3C)CC1)OC(=O)N2

RESULT:
107
85.3
